# Test system: ACHN renal
# ASSAY_OVERVIEW: NCI-60 one-dose screen, 48 h (100 = growth as untreated, 0 = no growth, -100 = all killed)
# REPORTED_CONDITIONS: 10 µM unless noted
Compounds without any hit were thinned out: in the full panel of roughly 83,000, 20% have a hit. Activity calls are given as the source filed them. Rule for the calls: active = growth percent below 10; inactive = the rest.
Assign growth to each entry below.

## Input Under ACHN renal: growth value of COc1c(C)c2c(c(O)c1C/C=C(\C)CCC(=O)OCCN1CCOCC1)C(=O)OC2 ?
## Output 27% (inactive)

## Input Fill in the recorded growth for this compound, with ACHN renal as test system: CC(C)[O-].CC(C)[O-].CN(CCN(C)Cc1cc(F)cc(F)c1[O-])Cc1cc(F)cc(F)c1[O-].[Ti+4]
## Output 9.76% (active)

## Input Give growth (ACHN renal) of the following compound: Fc1ccc(-c2nc(Nc3ccc(-c4nc5ccccc5[nH]4)cc3)nc(N3CCOCC3)n2)cc1
## Output -90.6% (active)

## Input # returns recorded growth (system: ACHN renal) for CCN(CC)c1ccc(CN(CC(=O)c2ccc(Cl)c(Cl)c2)Cc2ccccc2)cc1
## Output 107% (inactive)

## Input Item CCOC(=O)C1=C(COCCN)NC(C)=C(C(=O)OC)C1c1ccccc1Cl (stereo not given) with ACHN renal - growth?
## Output 43.8% (inactive)

## Input Give the reported growth for CCOc1cc(-c2ccc[nH]2)[nH]c1/C=C1\N=C(C)C(C(=O)OC)=C1C (system: ACHN renal).
## Output -76.8% (active)

## Input For the record O=C(C=C=Nc1ccccc1)C(=O)N=C=Cc1ccccc1 , what value of growth is listed for ACHN renal?
## Output -58.3% (active)

## Input What growth appears in the records for this compound with ACHN renal? Cc1ccc(NC(=O)Nc2ccc(-c3cccnc3)cc2N2CCC(CO)CC2)cc1
## Output 81.2% (inactive)

## Input Item CC1SC(c2c(Cl)cccc2Cl)N(NC(=O)c2[nH]c3ccc(F)cc3c2-c2ccccc2)C1=O (stereo not given) with ACHN renal - growth?
## Output 34.4% (inactive)

## Input Find growth (ACHN renal) for the entry COC(=O)CCC1=C(CC(=O)OC)C(C)=N/C1=C\c1[nH]c(-c2ccc[nH]2)cc1OC
## Output 15.5% (inactive)

## Input Quick check: growth on ACHN renal, item c1ccc(-c2nn[nH]n2)c(-c2ccc(CN3CCN(c4nsc5ccccc45)CC3)cc2)c1 ?
## Output 98.7% (inactive)

## Input // map c1csc([C@@H]2C[C@@H]3Cc4ccc5ccccc5c4N2O3)c1 to recorded growth (system: ACHN renal)
## Output 107% (inactive)

## Input For the record O=C(CCc1nnc(Cn2cncn2)o1)c1nc2ccccc2[nH]1 , what value of growth is listed for ACHN renal?
## Output 113% (inactive)

## Input # get_value(readout= growth, system= ACHN renal) for COc1cc(/C=C/C(=O)c2ccc(F)cc2)ccc1OCCCCCOc1cc2c(cc1OC)C(=O)N1CCCC1C=N2 (stereo not given)
## Output -9.07% (active)

## Input growth of Cc1c(C(N)=O)sc2c1c(=O)n(Cc1ccccc1)c1nnc(SCC(=O)Nc3ccc(Cl)cc3)n21 on ACHN renal?
## Output 32.7% (inactive)

## Input Recorded growth for CCOc1ccccc1C(=O)OCC(=O)Nc1cccc(S(=O)(=O)N(C)C)c1 with ACHN renal, please?
## Output 121% (inactive)

## Input Form entry - test system: ACHN renal; read-out: growth; compound: CCOC(=O)C(C(C)=O)c1nc2sc3cc(Cl)ccc3n2c(=N)c1C#N (stereo not given)
## Output 109% (inactive)

## Input Form field - read-out: growth; system: ACHN renal; submitted item: CCCc1cc(=O)n2c(C(=O)Nc3ccccc3OC)c(C(=O)Nc3ccc(F)cc3)sc2n1
## Output 20.3% [30 µM] (inactive)

## Input For ACHN renal, provide growth of COc1c(O)cc2oc3cc(O)c(CC=C(C)C)c(O)c3c(=O)c2c1C/C=C(\C)CCC=C(C)C please.
## Output 22.6% (inactive)

## Input For ACHN renal, provide growth of COc1cc(/C=C2\CCC/C(=C\c3ccc(OCC4CO4)c(OC)c3)C2=O)ccc1OCC1CO1 (stereo not given) please.
## Output 30.2% (inactive)

## Input Can you look up growth on ACHN renal for O=C1/C(=C/c2ccc([N+](=O)[O-])o2)Oc2ccc(Cl)cc21 ?
## Output -61% (active)

## Input For ACHN renal, provide growth of C=Cc1nn2c(CCC(=O)c3nc4ccccc4[nH]3)nnc2s1 please.
## Output 96.2% (inactive)

## Input // lookup growth | system=ACHN renal | key= COc1ccc2c(c1)C(=O)/C(=C/c1ccc([N+](=O)[O-])s1)O2
## Output -54% (active)

## Input Recall the recorded growth for CSc1nc2c(c(=O)[nH]1)C(c1ccc(Cl)cc1)C1=C(N2)/C(=C/c2ccc(Cl)cc2)CNC1 (stereo not given) with ACHN renal and state it.
## Output 72.5% (inactive)

## Input Field: growth (ACHN renal). Entry: COc1cc(Oc2cc(-c3cccnc3)ccc2NC(=O)Nc2ccc(F)cc2F)cc(OC)c1OC
## Output 121% (inactive)

## Input Find the measured growth: item Cc1nn(-c2ccccc2)c(Cl)c1C(CC(=O)c1ccc(Cl)cc1)CC(=O)c1ccc(Cl)cc1 , target or system ACHN renal.
## Output 88.4% (inactive)

## Input Provide the documented growth with ACHN renal as the system for CCc1ccc(CCN2C(=O)c3ccccc3C2=O)nc1
## Output 105% (inactive)

## Input Given the entry COc1cc2c(cc1OCCCCCn1c(-c3ccc(OCc4ccccc4)cc3)nc3cc(N4CCOCC4)ccc31)N=C[C@@H]1CCCN1C2=O , what growth was observed with ACHN renal?
## Output -54.5% (active)

## Input growth of Cc1cc(C)c(OC(=O)CSc2nc3ccccc3c(=O)n2CCc2ccccc2)cc1C on ACHN renal?
## Output 92% (inactive)

## Input Form: Entry = C/C(=C\CCc1ccoc1)CC/C=C(\C)CCCN1CCC(CO)CC1 | System = ACHN renal | growth = ____
## Output 59.4% (inactive)

## Input Observed growth on ACHN renal for CCn1c2ccccc2c2ccc(C(C)=O)cc21 , please.
## Output 98.1% (inactive)

## Input Short answer please: growth, ACHN renal, entry COc1cc(NC(=O)c2cc3ccccc3cc2O)c(OC)cc1Cl
## Output 3.75% (active)

## Input Tell me reported growth for O=C(Nc1nc(-c2ccccc2)cs1)c1cc(O)c(O)c(O)c1 , tested with ACHN renal.
## Output 40.3% (inactive)

## Input Look up growth with ACHN renal for this compound: O=C1NC(=O)/C(=C\c2ccccc2)C2=C1CCCC2
## Output 15.7% (inactive)

## Input Param readout= growth; system= ACHN renal; entry= CCOC(=O)c1c2c(c(C)n1Cc1ccc(OC)cc1)-c1nc(N)ncc1CC2 ; returns value.
## Output 106% (inactive)

## Input Lab note: need growth for C=C1CC[C@@H]2[C@](C)(COC(C)=O)[C@H](OC(C)=O)CC[C@@]2(C)[C@@H]1CC(Nc1ccc(S(=O)(=O)Nc2cc(C)on2)cc1)C1=CCOC1=O (stereo not given in full) on ACHN renal, anyone have it?
## Output 19.5% (inactive)

## Input Request - read-out growth | tested on ACHN renal | compound CCCCCCCC/C=C\CCCCCCCCOc1ccccc1CC(=O)NCC[N+]1(C)CCCC1
## Output 107% (inactive)

## Input Entry Cc1nn(-c2ccc(Cl)cc2)c2nc3c(nc12)C(=O)c1ccccc1-3 , system ACHN renal: what growth was measured?
## Output 65.1% (inactive)

## Input Record O=C1NCN(CCO)CN1 : what is its growth with ACHN renal?
## Output 104% (inactive)

## Input Quick check: growth on ACHN renal, item Nc1nc(SCC2(CCl)COC2)c2[nH]cnc2n1 ?
## Output 95.7% (inactive)

Each recorded value in this set is attributed to PubChem BioAssay (NCI).
